- System: A. baumannii SM1536 (pMQ124xlab1-mcr-1)
- test.protocol: MIC, microbial susceptibility assay
- Format: cell-based, Acinetobacter baumannii
- test.conditions: A. baumannii SM1536 upon introduction of mcr-1
Positions of bridges follow the written chain, without caps; N, C: chain ends. Non-standard residues stand in square brackets, D forms with d. Residues, ends and D or L forms follow the SMILES beside them. *: point of attachment. Octanoyl(3-OH) = CCCCCC(O)CC(=O)*; Decanoyl = CCCCCCCCCC(=O)*; Nonanoyl = CCCCCCCCC(=O)*; Heptanoyl = CCCCCCC(=O)*; Octanoyl = CCCCCCCC(=O)*; Dab = NCC[C@H](N)C(=O)O
Please go through the items and note down their Fold increase in MIC.

Known Fold increase in MIC results, listed for orientation:
molecule | test.readout | observed.measurement
CCCCCCC(=O)N[C@@H](CCN)C(=O)N[C@H](C(=O)N[C@H](CO)C(=O)N[C@H]1CCNC(=O)[C@H](CC(C)C)NC(=O)[C@H](CCN)NC(=O)[C@H](CCN)NC(=O)[C@H]([C@@H](C)CC)NC(=O)[C@@H](CC(C)C)NC(=O)[C@H](CCN)NC1=O)[C@@H](C)O [L1] (Heptanoyl-[Dab]T[dS][Dab][Dab][dL]I[Dab][Dab]L; lactam 4-C; N-terminus assumed) | Fold increase in MIC | 8
CCCCCCCCCC(=O)N[C@@H](CCN)C(=O)N[C@H](C(=O)N[C@H](CO)C(=O)N[C@H]1CCNC(=O)[C@H](CC(C)C)NC(=O)[C@H](CCN)NC(=O)[C@H](CCN)NC(=O)[C@H]([C@@H](C)CC)NC(=O)[C@@H](CC(C)C)NC(=O)[C@H](CCN)NC1=O)[C@@H](C)O [L4] (Decanoyl-[Dab]T[dS][Dab][Dab][dL]I[Dab][Dab]L; lactam 4-C; N-terminus assumed) | Fold increase in MIC | 8
CCCCCC(O)CC(=O)N[C@@H](CCN)C(=O)N[C@H](C(=O)N[C@H](CO)C(=O)N[C@H]1CCNC(=O)[C@H](CC(C)C)NC(=O)[C@H](CCN)NC(=O)[C@H](CCN)NC(=O)[C@H]([C@@H](C)CC)NC(=O)[C@@H](CC(C)C)NC(=O)[C@H](CCN)NC1=O)[C@@H](C)O (stereo partly drawn) [L5] ({Octanoyl(3-OH)}-[Dab]T[dS][Dab][Dab][dL]I[Dab][Dab]L; lactam 4-C; N-terminus assumed) | Fold increase in MIC | 4
CCCCCCCC(=O)N[C@@H](CCN)C(=O)N[C@H](C(=O)N[C@H](CO)C(=O)N[C@H]1CCNC(=O)[C@H](CC(C)C)NC(=O)[C@H](CCN)NC(=O)[C@H](CCN)NC(=O)[C@H]([C@@H](C)CC)NC(=O)[C@@H](CC(C)C)NC(=O)[C@H](CCN)NC1=O)[C@@H](C)O [L2] (Octanoyl-[Dab]T[dS][Dab][Dab][dL]I[Dab][Dab]L; lactam 4-C; N-terminus assumed) | Fold increase in MIC | 8

Attention now turns to another entry.
Enquiry: Answer with reported Fold increase in MIC of CCCCCCCCC(=O)N[C@@H](CCN)C(=O)N[C@H](C(=O)N[C@H](CO)C(=O)N[C@H]1CCNC(=O)[C@H](CC(C)C)NC(=O)[C@H](CCN)NC(=O)[C@H](CCN)NC(=O)[C@H]([C@@H](C)CC)NC(=O)[C@@H](CC(C)C)NC(=O)[C@H](CCN)NC1=O)[C@@H](C)O [L3] (Nonanoyl-[Dab]T[dS][Dab][Dab][dL]I[Dab][Dab]L; lactam 4-C; N-terminus assumed)
Return: 4

Values were extracted from paper PMC10321319.
